{"compound": "CCC(Oc1ccc(Cl)cc1Cl)C(=O)NCc1ccc(OC)c(OC)c1 (stereo not shown) [MBX-2082]", "melting point / °C": 117}
{"compound": "CCCC(Oc1ccc(Cl)cc1Cl)C(=O)NCc1ccc(OC)cc1 (stereo not shown) [MBX-2087]", "melting point / °C": 103}
{"compound": "COc1ccc(CNC(=O)C(C)Oc2ccc(Cl)cc2Cl)cc1OC (stereo not shown) [MBX-1942]", "melting point / °C": 127}
{"compound": "COc1ccc(CNC(=O)C(Oc2ccc(Cl)cc2Cl)C(C)C)cc1OC (stereo not shown) [MBX-2147]", "melting point / °C": 109}
{"compound": "CC(C)C(Oc1ccc(Cl)cc1Cl)C(=O)NCc1ccc(F)cc1 (stereo not shown) [MBX-2149]", "melting point / °C": 106}
{"compound": "CCCC(Oc1ccc(Cl)cc1Cl)C(=O)NCc1ccc2c(c1)OCO2 (stereo not shown) [MBX-2085]", "melting point / °C": 92}
{"compound": "CCC(Oc1ccc(Cl)cc1Cl)C(=O)NCc1ccc(OC)cc1 (stereo not shown) [MBX-2083]", "melting point / °C": 86}
{"compound": "CCC(Oc1ccc(Cl)cc1Cl)C(=O)NCc1ccc(F)cc1 (stereo not shown) [MBX-2084]", "melting point / °C": 108}
{"compound": "COc1ccc(CNC(=O)C(C)Oc2ccc(Cl)cc2Cl)cc1 (stereo not shown) [MBX-1940]", "melting point / °C": 77}
{"compound": "COc1ccc(CNC(=O)C(Oc2ccc(Cl)cc2Cl)C(C)C)cc1 (stereo not shown) [MBX-2148]", "melting point / °C": 77}
{"compound": "CC(C)C(Oc1ccc(Cl)cc1Cl)C(=O)NCc1ccc2c(c1)OCO2 (stereo not shown) [MBX-2146]", "melting point / °C": 74}
{"compound": "CCC(Oc1ccc(Cl)cc1Cl)C(=O)NCc1ccc2c(c1)OCO2 (stereo not shown) [MBX-2081]", "melting point / °C": 112}
{"compound": "CCCC(Oc1ccc(Cl)cc1Cl)C(=O)NCc1ccc(OC)c(OC)c1 (stereo not shown) [MBX-2086]", "melting point / °C": 82}

----------
test: Mammalian cytotoxicity (MTS conversion, serum-free medium); format: cell-based, human; details: human, HeLa cells; Table 4; average of 1-20 determinations; read-out: Ave. CC50
Reported CC50 at 3 days values for a set of molecules
measured metric: CC50 at 3 days (µM)

{"molecule": "CCC(Oc1ncc(Cl)cc1Cl)C(=O)NCc1ccc2c(c1)OCO2 (racemic)", "censoring sign": ">", "readout value": 100}
{"molecule": "CCC(Oc1ncc(Cl)cc1Cl)C(=O)NCc1ccc(F)cc1 (stereo not drawn)", "censoring sign": "=", "readout value": 85}
{"molecule": "CCC(Oc1ccc(Cl)cc1Cl)C(=O)NCc1ccc(F)cc1 (stereo not drawn)", "censoring sign": "=", "readout value": 45}
